- test_target: T1, human CD3ed (human, UniProt P07766 23-126; P04234 22-105, limits assumed)
- T1 construct: The construct injected as 'human CD3ed' in the Biacore assay is not defined; also called human CD3 epsilon/delta heterodimer
- T1 sequence (P07766 23-126 limits assumed, chain 1 of 2): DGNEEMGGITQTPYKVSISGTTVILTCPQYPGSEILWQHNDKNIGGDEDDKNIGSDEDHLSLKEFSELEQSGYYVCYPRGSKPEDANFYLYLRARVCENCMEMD
- T1 sequence (P04234 22-105 limits assumed, chain 2 of 2): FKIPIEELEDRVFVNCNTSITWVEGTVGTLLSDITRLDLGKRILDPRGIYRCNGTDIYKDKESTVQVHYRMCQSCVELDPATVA
- test_details: SPR Biacore T200, IgG captured on protein A, antigen as analyte, 25 C;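 note: antigens flowed over a CM3 chip for 120 s association, KD derived from ka and kd, running buffer (ACES, NaCl, Tween20, pH 7.4) served as blank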

binder	Kd / nM
dBBDu_189 / dBBDu_L116 (antibody, human IgG1, V domains shown, Tested as IgG (human IgG1 constant region, kappa light chain); also called dBBDu189/L116) VH: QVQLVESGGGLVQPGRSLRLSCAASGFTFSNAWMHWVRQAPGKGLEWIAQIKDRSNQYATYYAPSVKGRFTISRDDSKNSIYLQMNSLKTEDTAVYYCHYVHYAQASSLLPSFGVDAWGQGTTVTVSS VL: DIVMTQSPLSLPVTPGEPASISCSSSQELVHANRQIYLHWYQQKPGQAPRLLIYKVANRFPGVPDRFSGSGSGTDFTLKISRVEAEDVGVYYCAQGTQVPFTFGQGTKLEIK	209
dBBDu_189 / dBBDu_L119 (antibody, human IgG1, V domains shown, Tested as IgG (human IgG1 constant region, kappa light chain); also called dBBDu189/L119) VH: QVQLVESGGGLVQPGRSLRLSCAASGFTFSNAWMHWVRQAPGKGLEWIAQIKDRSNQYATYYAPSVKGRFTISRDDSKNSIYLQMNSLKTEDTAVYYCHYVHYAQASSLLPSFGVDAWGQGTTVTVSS VL: DIVMTQSPLSLPVTPGEPASISCTASQELVHINRFIFLHWYQQKPGQAPRLLIYKVSNRFIGVPDRFSGSGSGTDFTLKISRVEAEDVGVYYCAQGSQVPFTFGQGTKLEIK	2060
dBBDu_186 / dBBDu_L100 (antibody, human IgG1, V domains shown, Tested as IgG (human IgG1 constant region, kappa light chain); also called dBBDu186/L100) VH: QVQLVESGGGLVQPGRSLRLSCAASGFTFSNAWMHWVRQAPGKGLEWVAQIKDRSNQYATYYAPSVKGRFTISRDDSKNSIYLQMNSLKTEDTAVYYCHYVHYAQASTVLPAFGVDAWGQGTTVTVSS VL: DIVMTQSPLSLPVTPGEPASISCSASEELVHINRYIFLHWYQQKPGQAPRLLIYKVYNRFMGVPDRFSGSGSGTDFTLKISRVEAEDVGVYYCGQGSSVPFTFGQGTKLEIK	3360
dBBDu_186 / dBBDu_L096 (antibody, human IgG1, V domains shown, Tested as IgG (human IgG1 constant region, kappa light chain); also called dBBDu186/L096) VH: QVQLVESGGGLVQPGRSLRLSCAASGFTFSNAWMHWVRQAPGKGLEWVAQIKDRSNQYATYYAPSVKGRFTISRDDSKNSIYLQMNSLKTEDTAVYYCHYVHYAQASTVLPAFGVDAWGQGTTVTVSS VL: DIVMTQSPLSLPVTPGEPASISCRTSQELVHINRYIFLHWYQQKPGQAPRLLIYKVYNRFQGVPDRFSGSGSGTDFTLKISRVEAEDVGVYYCAQGTSVPYTFGQGTKLEIK	9110
dBBDu_183 / dBBDu_L072 (antibody, human IgG1, V domains shown, Tested as IgG (human IgG1 constant region, kappa light chain); also called dBBDu183/L072; H183L072) VH: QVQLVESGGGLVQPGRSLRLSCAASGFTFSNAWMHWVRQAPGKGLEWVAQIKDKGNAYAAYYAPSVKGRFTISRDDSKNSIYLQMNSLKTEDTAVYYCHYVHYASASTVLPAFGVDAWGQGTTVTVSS VL: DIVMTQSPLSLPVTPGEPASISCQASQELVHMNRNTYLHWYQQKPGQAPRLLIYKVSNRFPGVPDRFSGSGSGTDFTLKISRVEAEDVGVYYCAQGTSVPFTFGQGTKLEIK	217
dBBDu_186 / dBBDu_L106 (antibody, human IgG1, V domains shown, Tested as IgG (human IgG1 constant region, kappa light chain); also called dBBDu186/L106) VH: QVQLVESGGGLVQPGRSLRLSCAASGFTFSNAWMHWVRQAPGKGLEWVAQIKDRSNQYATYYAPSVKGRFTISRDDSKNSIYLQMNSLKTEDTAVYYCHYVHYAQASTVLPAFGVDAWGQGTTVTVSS VL: DIVMTQSPLSLPVTPGEPASISCSTSEELLHINRFIFLHWYQQKPGQAPRLLIYKVANRFMGVPDRFSGSGSGTDFTLKISRVEAEDVGVYYCAQGSQVPFTFGQGTKLEIK	3090
dBBDu_189 / dBBDu_L112 (antibody, human IgG1, V domains shown, Tested as IgG (human IgG1 constant region, kappa light chain); also called dBBDu189/L112) VH: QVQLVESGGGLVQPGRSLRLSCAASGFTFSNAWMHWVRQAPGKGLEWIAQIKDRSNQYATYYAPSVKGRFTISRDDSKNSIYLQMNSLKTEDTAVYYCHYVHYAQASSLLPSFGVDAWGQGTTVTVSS VL: DIVMTQSPLSLPVTPGEPASISCTSDQELVHMNRHTYLHWYQQKPGQAPRLLIYKVYNRFPGVPDRFSGSGSGTDFTLKISRVEAEDVGVYYCAQGTSVPFTFGQGTKLEIK	331
dBBDu_183 / dBBDu_L067 (antibody, human IgG1, V domains shown, Tested as IgG (human IgG1 constant region, kappa light chain); also called dBBDu183/L067) VH: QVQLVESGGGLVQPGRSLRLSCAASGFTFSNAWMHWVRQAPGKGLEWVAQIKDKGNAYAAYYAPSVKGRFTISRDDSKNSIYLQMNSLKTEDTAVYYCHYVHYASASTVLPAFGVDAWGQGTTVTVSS VL: DIVMTQSPLSLPVTPGEPASISCQSSESLVHVNRHTYLHWYQQKPGQAPRLLIYKVYNRFPGVPDRFSGSGSGTDFTLKISRVEAEDVGVYYCAQGTSVPFTFGQGTKLEIK	217
dBBDu_167 / dBBDu.L094 (antibody, human IgG1, V domains shown, Tested as IgG (human IgG1 constant region, kappa light chain); also called dBBDu167/L094; dBBDu_167/L094) VH: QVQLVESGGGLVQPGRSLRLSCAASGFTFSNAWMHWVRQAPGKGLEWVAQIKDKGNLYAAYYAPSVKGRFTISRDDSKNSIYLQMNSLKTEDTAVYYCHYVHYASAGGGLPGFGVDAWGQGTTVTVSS VL: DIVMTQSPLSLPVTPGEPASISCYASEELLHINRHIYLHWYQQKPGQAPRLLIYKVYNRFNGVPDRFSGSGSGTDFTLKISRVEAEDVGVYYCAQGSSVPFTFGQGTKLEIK	349
dBBDu_183 / dBBDu_L063 (antibody, V domains shown, Tested as IgG (Fab genes converted into IgG format, human IgG1 constant region, kappa light chain); also called dBBDu183/L063; dBBDu_183/L063) VH: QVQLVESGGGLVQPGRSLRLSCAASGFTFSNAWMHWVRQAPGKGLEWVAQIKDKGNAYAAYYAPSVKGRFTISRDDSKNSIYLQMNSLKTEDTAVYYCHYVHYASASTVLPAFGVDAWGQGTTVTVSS VL: DIVMTQSPLSLPVTPGEPASISCRSSQELVHTNRHTYLHWYQQKPGQAPRLLIYKVSNRFPGVPDRFSGSGSGTDFTLKISRVEAEDVGVYYCAQGTQVPFTFGQGTKLEIK	276
dBBDu_189 / dBBDu_L126 (antibody, human IgG1, V domains shown, Tested as IgG (human IgG1 constant region, kappa light chain); also called dBBDu189/L126) VH: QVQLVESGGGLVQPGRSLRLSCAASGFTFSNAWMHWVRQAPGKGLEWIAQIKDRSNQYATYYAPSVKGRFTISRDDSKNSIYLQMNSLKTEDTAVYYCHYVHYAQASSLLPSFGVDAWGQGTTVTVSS VL: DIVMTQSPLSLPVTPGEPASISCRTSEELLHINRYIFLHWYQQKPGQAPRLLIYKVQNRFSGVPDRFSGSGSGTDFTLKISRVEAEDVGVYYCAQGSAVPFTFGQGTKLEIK	2570
